inhibition by entry:
- measurement-target: UniProtKB P78417
- Sequence (P78417 whole entry, looked up): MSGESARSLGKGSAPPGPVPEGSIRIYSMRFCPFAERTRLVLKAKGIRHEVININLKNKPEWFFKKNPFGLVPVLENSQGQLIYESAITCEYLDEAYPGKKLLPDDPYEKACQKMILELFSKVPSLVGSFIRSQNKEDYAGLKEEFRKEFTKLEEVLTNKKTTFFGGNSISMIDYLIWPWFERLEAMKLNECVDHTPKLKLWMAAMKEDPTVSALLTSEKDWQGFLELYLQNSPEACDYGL
- test: selectivity of GSTO1 blockers across lysate enzymes – cell lysate, MDA-MB-435 proteome, gel ABPP, endogenous enzyme, selectivity assay for GSTO1 inhibitor project, late-stage follow-up (AID 463102)
- stated-conditions: competitive gel ABPP, SE-Rh probe, GSTO1 inhibition, at 1 µM, stronger effect = higher value
# output: bare number, implied unit %

Reference set (8 entries):
>  <compound>
C#CCNC(=O)C(c1ccc(OC)cc1)N(C(=O)CCl)c1cccc(Cl)c1 (stereo not given)

>  <measurement-target>
UniProtKB P78417

>  <numeric-result>
100

$$$$
>  <compound>
Cc1ccc2c(c1)c1c3n2CCN(C(=O)CCl)C3CCC1 (stereo not given)

>  <measurement-target>
UniProtKB P78417

>  <numeric-result>
93

$$$$
>  <compound>
O=C(NC1CCCCC1)C(c1cccnc1)N(C(=O)CCl)c1cccc(C(F)(F)F)c1 (stereo not given)

>  <measurement-target>
UniProtKB P78417

>  <numeric-result>
92

$$$$
>  <compound>
CCCCCCCCCCN(C(=O)CCl)c1ccc([N+](=O)[O-])cc1

>  <measurement-target>
UniProtKB P78417

>  <numeric-result>
100

$$$$
>  <compound>
COc1ccc(N(C(=O)CCl)C(C(=O)NCCc2ccccc2)c2cccs2)cc1Cl (stereo not given)

>  <measurement-target>
UniProtKB P78417

>  <numeric-result>
100

$$$$
>  <compound>
O=C(NCCCN(C(=O)CCl)c1ccc([N+](=O)[O-])cc1)c1ccccc1

>  <measurement-target>
UniProtKB P78417

>  <numeric-result>
93

$$$$
>  <compound>
O=C(NC1CCCCC1)C(c1cccnc1)N(C(=O)CCl)c1ccc(C(F)(F)F)cc1 (stereo not given)

>  <measurement-target>
UniProtKB P78417

>  <numeric-result>
55

$$$$
>  <compound>
C#CCCCCN(C(=O)CCl)c1ccc([N+](=O)[O-])cc1

>  <measurement-target>
UniProtKB P78417

>  <numeric-result>
100

$$$$

Query: Reported inhibition for O=C(CCl)N(CCCNC(=O)C(F)(F)F)c1ccc(Cl)cc1 : what is it?
Reply: 100

Query: Reported inhibition for O=S(=O)(c1ccc(Cl)cc1)N1CCC2(CC1)CO2 : what is it?
Reply: 88
